Measured values drawn from patent US20220372138A1 for this set.

Please provide measured pEC50 for the entries that follow.
Target: T1, human IGSF11 (VSIG3) expressed on cells (human, UniProt Q5DX21 23-431)
T1 sequence: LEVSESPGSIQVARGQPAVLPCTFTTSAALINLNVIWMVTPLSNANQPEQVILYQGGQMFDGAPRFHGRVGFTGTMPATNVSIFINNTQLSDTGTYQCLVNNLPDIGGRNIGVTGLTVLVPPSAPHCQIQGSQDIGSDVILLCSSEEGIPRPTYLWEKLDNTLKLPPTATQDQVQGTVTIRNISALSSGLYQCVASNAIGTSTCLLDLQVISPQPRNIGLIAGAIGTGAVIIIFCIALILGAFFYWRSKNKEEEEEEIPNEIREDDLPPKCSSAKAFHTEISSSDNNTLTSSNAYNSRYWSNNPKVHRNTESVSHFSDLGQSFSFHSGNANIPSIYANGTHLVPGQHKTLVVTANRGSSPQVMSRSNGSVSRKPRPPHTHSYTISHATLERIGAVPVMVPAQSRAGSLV
Experiment: IgG1 FACS DMS 273
pEC50: −log10 of the molar value.

Worked set:
[
  {
    "binder": "A-013 (IgG1 format) (antibody, V domains shown, human IgG1 format) VH: EVQLVESGGGLIQPGGSLRLSCAASGFTVSSNYMSWVRQAPGKGLEWVSVIYSGGSTYYADSVKGRFTISRDNSKNTLYLQMNSLRAEDTAVYYCARGNPYYYGDLQVNFDYWGQGTLVTVSS VL: QAVVTQEPSLTVSPGGTVTLTCASSTGAVTSAYYPNWFQQKPGQAPRALIYSTSNKHSWTPARFSGSLLGGKAALTLSGVQPEDEADYYCLLYYGGAWVFGGGTKLTVL",
    "pEC50": "< 7.30"
  },
  {
    "binder": "A-006 (IgG1 format) (antibody, V domains shown, human IgG1 format; also called A-006-like ABP) VH: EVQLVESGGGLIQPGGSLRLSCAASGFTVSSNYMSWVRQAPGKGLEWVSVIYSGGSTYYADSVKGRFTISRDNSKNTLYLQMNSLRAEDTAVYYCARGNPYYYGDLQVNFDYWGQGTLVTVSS VL: QAVVTQEPSLTVSPGGTVTLTCASSTGAVTSGYYPNWFQQKPGQAPRPLIYSTSNKHSWTPARFSGSLLGGKAALTLSGVQPDDEAEYYCLLYYGGDWVFGGGTKLTVL",
    "pEC50": "< 7.30"
  },
  {
    "binder": "A-022 (IgG1 format) (antibody, V domains shown, human IgG1 format) VH: EVQLLESGPGLVKPSQTLSLTCTVSGGSISSGGYYWSWIRQHPGKGLEWIGYIYYSGSTYYNPSLKSRVTISVDTSKNQFSLKLSSVTAADTAVYYCARASRSTDYYFDYWGQGTLVTVSS VL: QPGLTQPPSMSYGLGQTATLTCTGNRNNIGDQGAAWLQQHQGHPPKLLSYRNNNGPSGISERLSASRSGNTASLTISGLQPEDEADYYCSAWDSSLRAWVFGGGTKLTVL",
    "pEC50": "7.30 to 8.00"
  }
]

Dear colleague, could you please provide pEC50 for the binders listed below?
1. B-002 (chain-swapped IgG1) (antibody, V domains shown, human IgG1 format; also called B2) VH: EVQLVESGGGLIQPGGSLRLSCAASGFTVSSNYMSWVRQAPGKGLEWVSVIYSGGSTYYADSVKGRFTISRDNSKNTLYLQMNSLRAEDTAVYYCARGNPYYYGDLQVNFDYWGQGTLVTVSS VL: QAVVTQEPSLTVSPGGTVTLTCASSTGAVTSGYYPNWFQQKPGQAPRALIYSTSNKHSWTPARFSGSLLGGKAALTLSGVQPEDEAEYYCLLYYGGAWVFGGGTKLTVL
2. A-024 (IgG1 format) (antibody, V domains shown, also called A-024-like ABP) VH: QMQLVQSGAEVKKPGSSVKVSCKASGGTFSSYAISWVRQAPGQGLEWMGWISAYNGNTNYAQKLQGRVTMTTDTSTSTAYMELRSLRSDDTAVYYCASLGSYGYTGAFDIWGQGTMATVSS VL: QSALTQPASVSGSPGQSITISCTGTSSDVGGYNYVSWYQQHPGKAPKLMIYEVSNRPSGVSNRFSGSKSGNTASLTISGLQAEDEADYYCSSYTSSSTLVVFGGGTKLTVL
3. A-012 (IgG1 format) (antibody, V domains shown, human IgG1 format) VH: EVQLLESGGGLIQPGGSLRLSCAVSGFTVSSNYMSWVRQAPGKGLEWVSVIYSGGSTYYADSVKGRFTISRDNSKNTLYLQMNSLRAEDTAVYYCARGNPYYYGDLQVNFDYWGQGTLVTVSS VL: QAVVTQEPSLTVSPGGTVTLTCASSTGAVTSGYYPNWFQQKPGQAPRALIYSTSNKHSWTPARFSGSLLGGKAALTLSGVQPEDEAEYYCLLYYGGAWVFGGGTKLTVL

Solution:
< 7.30
> 8.00
7.30 to 8.00
